Value source: BigSolDB 2.1

# Experimental setup: in THF, 302.95 K
Measurement label: solubility (mole fraction)

Look at this compound and give its reported solubility (mole fraction). CO/N=C(\C(=O)Sc1nc2ccccc2s1)c1csc(N)n1
0.0397

----------
# Experimental setup: in 1,2-dichloroethane, 282.77 K
Measurement label: solubility (mole fraction)
Give bare numbers.

Look at this compound and give its reported solubility (mole fraction). CO/N=C(\C(=O)Sc1nc2ccccc2s1)c1csc(N)n1
0.000458

----------
# Experimental setup: in 1,2-dichloroethane, 292.84 K
Measurement label: solubility (mole fraction)

Look at this compound and give its reported solubility (mole fraction). CO/N=C(\C(=O)Sc1nc2ccccc2s1)c1csc(N)n1
0.000876
